Target: T1, HER2 on the surface of N87 cells (human, UniProt P04626)
T1 construct: full-length receptor on the cell surface
Test: flow cytometry on N87 cells; scFv detected with AL2-RFP (1:1 scFv:AL fragment); MFI adjusted over cells with AL2-RFP without scFv

binder | binding result
GH2-50 scFv (scFv) scFv: DIQMTQSPSSLSASVGDRVTITCRASQDVFYGVAWYQQKPGKAPKLLIFWTTYLYSGVPSRFSGSGSGTDFTLTISSLQPEDFATYYCQQYFNWPLTFGQGTKVEIKRGGSSRSSSSGGGGSGGGGEVQLVESGGGLVQPGGSLRLSCAASGFTINNDGIHWVRQAPGKGLEWVAAIGPFWGSTDYADSVKGRFTISADTSTNTAYLHMNSLRAEDTALYYCARFGNYYDGVMDYWGQGTLVTVSSASAAA | binds
GH2-20 scFv (scFv) scFv: DIQMTQSPSSLSASVGDRVTITCRASQDVNNNVAWYQQKPGKAPKLLIYWTTYLYSGVPSRFSGSGSGTDFTLTISSLQPEDFATYYCQQGSNWPITFGQGTKVEIKRGGSSRSSSSGGGGSGGGGEVQLVESGGGLVQPGGSLRLSCAASGLTINDYGIHWVRQAPGKGLEWVASIGPSGGFTSYADSVKGRFTISADTSKNTAYLQMNSLRAEDTAVYYCARFVIYWGFFMDYWGQGTLVTVSSASAAA | binds
